# MEASUREMENT_NOTES: Multiple Ascending Dose (MAD) study, pharmacokinetics in healthy volunteers
# Assay type: in vivo, human
# CONDITION_PARAMETERS: human, in vivo, oral, 32 mg, 32 mg QD, Day 7, n = 8; arithmetic mean
QUANTITY: Cmax (ng/mL)
// units = ng/mL; emit number, no label

Kindly note the recorded Cmax for `[2H]C1([2H])C([C@@H](CC#N)n2cc(-c3ncnc4[nH]ccc34)cn2)C([2H])([2H])C([2H])([2H])C1([2H])[2H]` , which is 492
